This listing pairs sequences with measured self-splicing fitness (ln).
assay: self-splicing fitness, log relative to wild type (ln ratio); higher = more splicing; Tetrahymena group I intron in knt gene, E. coli kanamycin selection, DiMSum; sequences stand for … in CUCUCU…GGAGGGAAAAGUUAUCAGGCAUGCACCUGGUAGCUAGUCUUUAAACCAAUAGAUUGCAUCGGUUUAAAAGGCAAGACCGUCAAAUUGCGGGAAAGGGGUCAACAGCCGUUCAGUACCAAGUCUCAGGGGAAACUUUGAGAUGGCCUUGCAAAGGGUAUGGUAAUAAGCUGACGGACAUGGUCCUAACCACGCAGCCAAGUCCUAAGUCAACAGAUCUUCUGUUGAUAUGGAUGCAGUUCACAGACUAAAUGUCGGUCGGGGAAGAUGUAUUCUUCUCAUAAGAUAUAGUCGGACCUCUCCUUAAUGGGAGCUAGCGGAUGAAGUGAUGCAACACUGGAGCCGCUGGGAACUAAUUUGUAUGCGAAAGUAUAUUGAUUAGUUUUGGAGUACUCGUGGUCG; settings: 37 °C;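 also: selection with 25 µg/mL kanamycin versus none on LB agar overnight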
Lab note: write the figure by itself, no unit.

| Entry Sequence | Measured Result |
| --- | --- |
| GUGCAGCAAUAUUACGGUUC | -0.684 |

Please report self-splicing fitness (ln) for the following sequence: GAAUAGCAAUAUUACGCGUU
-1.37

====

test: self-splicing fitness, log relative to wild type (ln ratio); higher = more splicing; Tetrahymena group I intron in knt gene, E. coli kanamycin selection, DiMSum; sequences stand for … in CUCUCU…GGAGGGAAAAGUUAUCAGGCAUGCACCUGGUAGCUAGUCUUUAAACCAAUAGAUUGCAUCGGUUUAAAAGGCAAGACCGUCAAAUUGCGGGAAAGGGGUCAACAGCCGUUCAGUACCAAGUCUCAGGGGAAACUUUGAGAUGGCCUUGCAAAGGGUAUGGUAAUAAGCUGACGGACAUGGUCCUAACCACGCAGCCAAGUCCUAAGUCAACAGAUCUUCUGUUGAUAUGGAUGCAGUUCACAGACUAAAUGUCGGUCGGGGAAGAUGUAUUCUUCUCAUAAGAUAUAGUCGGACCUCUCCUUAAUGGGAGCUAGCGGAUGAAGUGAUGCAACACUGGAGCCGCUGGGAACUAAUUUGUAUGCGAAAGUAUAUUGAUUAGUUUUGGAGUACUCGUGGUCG; conditions: 37 °C
Readout Kind: self-splicing fitness (ln)

Sample records with self-splicing fitness (ln):
| Entry Sequence | self-splicing fitness (ln) |
| --- | --- |
| CUGGAGCAAUAUUACGUGAG | -0.213 |
| ACCCAGCAAUAUUACGAAUC | -1.45 |
| AAAAAGCAAUAUUACGCUUU | -2.32 |
| GGUUAGCAAUAUUACGCUCA | -0.632 |
| CAAGAGCAAUAUUACGUAUG | -1.36 |

Please report self-splicing fitness (ln) for the following sequence: CAGAAGCAAUAUUACGCCUA
-0.744

Please report self-splicing fitness (ln) for the following sequence: UACUAGCAAUAUUACGCGGC
-2.95

Please report self-splicing fitness (ln) for the following sequence: UACUAGCAAUAUUACGGGGC
-2.5

====

assay: self-splicing fitness, log relative to wild type (ln ratio); higher = more splicing; Tetrahymena group I intron in knt gene, E. coli kanamycin selection, DiMSum; sequences stand for … in CUCUCU…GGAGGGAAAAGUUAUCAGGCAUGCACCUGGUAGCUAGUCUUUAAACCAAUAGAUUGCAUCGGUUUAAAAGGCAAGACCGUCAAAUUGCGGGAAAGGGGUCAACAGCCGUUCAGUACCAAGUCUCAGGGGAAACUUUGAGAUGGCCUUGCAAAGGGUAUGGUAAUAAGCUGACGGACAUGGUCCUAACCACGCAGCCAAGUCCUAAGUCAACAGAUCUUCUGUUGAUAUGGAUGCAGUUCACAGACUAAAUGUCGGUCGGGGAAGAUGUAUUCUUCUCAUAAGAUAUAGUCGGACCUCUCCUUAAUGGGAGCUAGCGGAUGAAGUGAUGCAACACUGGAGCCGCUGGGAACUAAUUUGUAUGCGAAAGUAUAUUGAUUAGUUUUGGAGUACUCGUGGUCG; conditions: 37 °C
Readout Kind: self-splicing fitness (ln)
Lab note: write the figure by itself, no unit.

Sample records with self-splicing fitness (ln):
| Entry Sequence | Measured Result |
| --- | --- |
| AUCCAGCAAUAUUACGGCGA | -0.399 |
| GCAGAGCAAUAUUACGUACG | -1.77 |
| UUGCAGCAAUAUUACGAUGG | -1.07 |

Next item in the queue.
Please report self-splicing fitness (ln) for the following sequence: UUAUAGCAAUAUUACGUAUA
-1.42
